Entry source: PubChem BioAssay (EPA / NIEHS)

# Read-out: Insulin-like growth factor-binding protein 1 (IGFBP1), IGFBP1 (gene 3484)
# protocol: LTEA_HepaRG_IGFBP1: Life Technologies and Expression Analysis (LTEA) Assay for Insulin-like growth factor-binding protein 1 (IGFBP1) using HepaRG (AID 2283508)
# run conditions: mRNA level, 48 h; actives raise or lower the signal
Active and inactive are the calls of the source. The calls were made as follows: active = hit-call score of the fitted dose curve at least 0.9, where 1 is the maximum; inactive = score below 0.9.
Choose the fitting class; nothing outside 1 = active, -1 = inactive is accepted.

// query For CC1(C)C(C(=O)OC(C#N)c2cccc(Oc3ccccc3)c2)C1(C)C (stereo not given) , what call appears in the results of this test?
// result -1

// query For N#Cc1c(Cl)cccc1Cl , what call appears in the results of this test?
// result -1

// query For Nc1c(Cl)c(F)nc(OCC(=O)O)c1Cl , what call appears in the results of this test?
// result -1

// query For COC(=O)NC(=S)Nc1ccccc1NC(=S)NC(=O)OC , what call appears in the results of this test?
// result -1

// query For CCC(C)n1c(=O)[nH]c(C)c(Br)c1=O (stereo not given) , what call appears in the results of this test?
// result 1

// query For CCSC(=O)N1CCCCCC1 , what call appears in the results of this test?
// result -1

// query For Cc1c(COC(=O)[C@@H]2[C@H](/C=C(\Cl)C(F)(F)F)C2(C)C)cccc1-c1ccccc1 , what call appears in the results of this test?
// result -1

// query For CCOP(=O)(OCC)Oc1nc(Cl)c(Cl)cc1Cl , what call appears in the results of this test?
// result -1

// query For CN=C=S , what call appears in the results of this test?
// result -1

// query For Cc1nc(N(C)C)nc(OC(=O)N(C)C)c1C , what call appears in the results of this test?
// result -1

// query For COC(=O)c1c(C(F)F)nc(C(F)(F)F)c(C2=NCCS2)c1CC(C)C , what call appears in the results of this test?
// result -1

// query For COC(=O)NS(=O)(=O)c1ccc(N)cc1 , what call appears in the results of this test?
// result -1

// query For CC(C)NC(=O)N1CC(=O)N(c2cc(Cl)cc(Cl)c2)C1=O , what call appears in the results of this test?
// result -1

// query For COc1cc(OC)nc(NC(=O)NS(=O)(=O)c2ncccc2OCC(F)(F)F)n1 , what call appears in the results of this test?
// result -1

// query For Nc1cnn(-c2ccccc2)c(=O)c1Cl , what call appears in the results of this test?
// result -1

// query For COCC(C)N(C(=O)CCl)c1c(C)csc1C (stereo not given) , what call appears in the results of this test?
// result -1

// query For CCNP(=S)(OC)O/C(C)=C/C(=O)OC(C)C (stereo not given) , what call appears in the results of this test?
// result -1

// query For N#Cc1c[nH]cc1-c1cccc2c1OC(F)(F)O2 , what call appears in the results of this test?
// result 1

// query For CCOP(=S)(OCC)Oc1nc(Cl)n(C(C)C)n1 , what call appears in the results of this test?
// result 1

// query For CO/N=C(/C1=NOCCO1)c1ccccc1Oc1ncnc(Oc2ccccc2Cl)c1F , what call appears in the results of this test?
// result 1

// query For O=C(O)c1c(Cl)ccc2cc(Cl)cnc12 , what call appears in the results of this test?
// result -1

// query For N#CN=C1SCCN1Cc1ccc(Cl)nc1 , what call appears in the results of this test?
// result -1

// query For CCOC(=O)C(C)OC(=O)c1cc(Oc2ccc(C(F)(F)F)cc2Cl)ccc1[N+](=O)[O-] (stereo not given) , what call appears in the results of this test?
// result -1

// query For C=C(C)CN(CC)c1c([N+](=O)[O-])cc(C(F)(F)F)cc1[N+](=O)[O-] , what call appears in the results of this test?
// result -1

// query For CCCC(=NOCC)C1=C(O)CC(CC(C)SCC)CC1=O (stereo not given) , what call appears in the results of this test?
// result -1
